# EXPERIMENT_DESCRIPTION: Half life in rat
# Format: ADME
# ASSAY_CONTEXT: in vivo
I'd appreciate it if you marked entries True when half-life is lower than 2 h and False when it is not.

Query block: Lab note: confirm whether the reported half-life for this compound is below 2 h, equality not counting. compound: CC[C@@H]1[C@@H]2CN(C(=O)[C@H](C(C)(C)C)NC(=O)O[C@@H]3C[C@H]3CCCCCc3nc4ccc(OC)cc4nc3O2)[C@@H]1C(=O)N[C@]1(C(=O)NS(=O)(=O)C2CC2)C[C@H]1C(F)F
Result block: True

Query block: Is half-life of CC[C@@H]1[C@@H]2CN(C(=O)[C@H](C(C)(C)C)NC(=O)O[C@@H]3C[C@H]3CCCCCc3nc4ccc(OC)cc4nc3O2)[C@@H]1C(=O)N[C@]1(C(=O)NS(=O)(=O)C2CC2)C[C@H]1CC strictly below 2 h?
Result block: False

Query block: Identify whether the compound COc1ccc2nc3c(nc2c1)O[C@H]1CN(C(=O)[C@H](C(C)(C)C)NC(=O)O[C@@H]2C[C@H]2CCCCC3)[C@H](C(=O)N[C@]2(C(=O)NS(=O)(=O)C3(C)CC3)C[C@H]2C(F)F)[C@@H]1C records half-life below 2 h.
Result block: True

Query block: Is the reported half-life for C=C[C@@H]1C[C@]1(NC(=O)[C@@H]1[C@H](CC)[C@@H]2CN1C(=O)[C@H](C(C)(C)C)NC(=O)O[C@@H]1C[C@H]1CCCCCc1nc3ccc(OC)cc3nc1O2)C(=O)NS(=O)(=O)C1CC1 strictly below 2 h?
Result block: False

Query block: Item CC[C@@H]1[C@@H]2CN(C(=O)[C@H](C(C)(C)C)NC(=O)O[C@@H]3C[C@H]3CCCCCc3nc4ccc(OC)cc4nc3O2)[C@@H]1C(=O)N[C@]1(C(=O)NS(=O)(=O)C2(C)CC2)C[C@H]1C(F)F : half-life beneath 2 h, strictly?
Result block: True

====

Task for the reader: assign each of the following compounds its reported Vd.
# EXPERIMENT_DESCRIPTION: Volume of distribution at steady state in rat
# Type: ADME
# ASSAY_CONTEXT: in vivo, read-out: Vdss
Entry rule: numbers only, all in L/kg.

Short answer for COc1ccc2nc3c(nc2c1)O[C@H]1CN(C(=O)[C@H](C(C)(C)C)NC(=O)O[C@@H]2C[C@H]2CCCCC3)[C@H](C(=O)N[C@]2(C(=O)NS(=O)(=O)C3(C)CC3)C[C@H]2C(F)F)[C@@H]1C : Vd was 2.2

Documented Vd of CC[C@@H]1[C@@H]2CN(C(=O)[C@H](C(C)(C)C)NC(=O)O[C@@H]3C[C@H]3CCCCCc3nc4ccc(OC)cc4nc3O2)[C@@H]1C(=O)N[C@]1(C(=O)NS(=O)(=O)C2CC2)C[C@H]1CC : 3.1

Measured Vd of C=C[C@@H]1C[C@]1(NC(=O)[C@@H]1[C@H](CC)[C@@H]2CN1C(=O)[C@H](C(C)(C)C)NC(=O)O[C@@H]1C[C@H]1CCCCCc1nc3ccc(OC)cc3nc1O2)C(=O)NS(=O)(=O)C1CC1 : 1.9

Form field Vd, entry CC[C@@H]1[C@@H]2CN(C(=O)[C@H](C(C)(C)C)NC(=O)O[C@@H]3C[C@H]3CCCCCc3nc4ccc(OC)cc4nc3O2)[C@@H]1C(=O)N[C@]1(C(=O)NS(=O)(=O)C2CC2)C[C@H]1C(F)F : 1

Reported Vd of CC[C@@H]1[C@@H]2CN(C(=O)[C@H](C(C)(C)C)NC(=O)O[C@@H]3C[C@H]3CCCCCc3nc4ccc(OC)cc4nc3O2)[C@@H]1C(=O)N[C@]1(C(=O)NS(=O)(=O)C2(C)CC2)C[C@H]1C(F)F : 1.7
